# Test system: RSK4(Kin.Dom.1-N-terminal)
# Construct: gene RPS6KA6
# CONDITION_SET: concentration: 1 μM, replicates: in singlicate; n = 1;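 note: KINOMEscan kinase panel screen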
Quick reference for %Inh among some compounds
Use % as the unit, but write only the number.

# annotated cases, reported %Inh shown
{"columns": ["COMPOUND", "TEST_VALUE"],
 "data": [
  ["COc1ccc(Nc2nccc(-c3ccc(NC(=O)c4cc5cc(F)ccc5[nH]4)cc3)n2)cc1 [GSK1229496]", 20],
  ["FC(F)(F)c1ccccc1-c1cc(-c2c[nH]nc2-c2ccccn2)ccn1 [GW679396]", 0],
  ["COc1ccc(CSc2nnc(-c3ccc4ncsc4c3)o2)cc1C(F)(F)F", 0],
  ["O=C(Nc1n[nH]c2nc(-c3cccs3)c(Br)cc12)C1CC1 [SB-735297]", 98.9],
  ["Cc1c(Cn2c(C)c(C)n3c(=O)cc(N4CCOCC4)nc23)cccc1C(F)(F)F [GSK2328680]", 0]
]}

QUERY: Lab note: need %Inh for CC(=O)c1c(C)c2cnc(Nc3ccn(C)n3)nc2n(C2CCCC2)c1=O on RSK4(Kin.Dom.1-N-terminal), anyone have it?
RESULT: 0

QUERY: Now the compound Cn1cncc1-c1cc2c(Nc3ccc(OCc4ccccc4)cc3)ncnc2cn1 [GW281179]
RESULT: 0

QUERY: Now the same for Cc1ccc(-c2nc(Nc3ccncc3)c3ccccc3n2)s1 [GSK189015]
RESULT: 0

QUERY: Next compound up: COc1cccc(CNC(=O)NC2CCN(c3ccnc(Nc4ccc(F)cc4)n3)C2)c1 (stereo not drawn) [GSK1379723]
RESULT: 0

QUERY: Let us now turn to Cc1ccc(NC(=O)c2ccc(Cl)cc2)cc1-c1ccc(C(=O)Nc2ccncc2)cc1 [GSK1398467]
RESULT: 0

QUERY: Param item: Cn1cncc1C(=O)NC1CCN(c2ccnc(Nc3ccc(F)cc3)n2)C1 (stereo not drawn) [GSK1379717]
RESULT: 0

QUERY: Ok, now Cc1ccc(NC(=O)Nc2ccccc2F)cc1-c1ccc(C(=O)Nc2ccncc2)cc1 [GSK1398477]
RESULT: 0

QUERY: Can you check Cc1ccccc1Cn1ccn2c(=O)cc(N3CCOCC3)nc12 [GSK2269905] next?
RESULT: 0

QUERY: Consider next the compound CNc1nc(-c2ccc3c(N)n[nH]c3c2)cc(N2C[C@@H](C(=O)NC3CCCCC3)OC[C@H]2C)n1 [GSK2375584] in the same way.
RESULT: 0

QUERY: Same question for COc1ccc(-c2coc3ccc(-c4nnc(C)o4)cc23)cc1 please.
RESULT: 22

QUERY: For CC(C)c1ccc(O)cc1Nc1ccnc2ccc(C(F)(F)F)cc12 [GW482059] then?
RESULT: 0

QUERY: Field entry: COc1nccc(-c2c(-c3ccc(F)cc3)ncn2CCCN2CCOCC2)n1 [SB-282852]
RESULT: 0

QUERY: Check COc1ccc(CSc2nnc(-c3ccc4c(c3)CCO4)o2)cc1 too.
RESULT: 0

----------
# System: GSK3B
# CONDITION_SET: concentration: 1 μM, replicates: in singlicate; n = 1
Below, each entry is listed with its recorded %Inh.
Write the value in % as a bare number.

Previously resolved entries follow.
{"columns": ["COMPOUND", "TEST_VALUE"],
 "data": [
  ["COc1ccc(Nc2nccc(-c3ccc(NC(=O)c4cc5cc(F)ccc5[nH]4)cc3)n2)cc1 [GSK1229496]", 0],
  ["CC[C@@H]1CO[C@H](C(=O)Nc2ccccc2)CN1c1cc(-c2ccc3c(N)n[nH]c3c2)nc(NC)n1 [GSK2376236]", 17],
  ["CC(C)c1cc(-c2ccc3c(N)n[nH]c3c2)nc(N)n1 [GSK2250882]", 0]
]}

From here, focus on the item given below.
QUERY: // lookup %Inh | system=GSK3B | key= CCc1ccc(-c2ccc3c(c2)-c2n[nH]cc2S(=O)(=O)N3C)cc1
RESULT: 0

----------
Quick reference for %Inh among some compounds
# Tested on: BRAF
# CONDITION_SET: concentration: 1 μM, replicates: in singlicate; n = 1
Report only the number, with the unit % understood.

Example entries and their recorded answers appear below.
{"columns": ["COMPOUND", "TEST_VALUE"],
 "data": [
  ["Cc1ccc(-c2nc(Nc3ccncc3)c3ccccc3n2)s1", 6],
  ["COc1cc2ncnc(Nc3cccc(Br)c3)c2cc1OC.Cl", 0],
  ["CC(C)c1cc(-c2ccc3c(N)n[nH]c3c2)nc(N)n1", 0]
]}

QUERY: Need %Inh of COC(=O)c1cccc(NC(=O)NC2CCN(c3ccnc(Nc4ccc(OC)cc4)n3)C2)c1 (centres unmarked) , thanks.
RESULT: 7

QUERY: Repeat for the following compound: Cc1cnc(N)c(/C=C/c2cncc(C(=O)NCCc3ccc(Cl)cc3Cl)c2)c1.Cl
RESULT: 1

----------
# Tested on: PFTK1
# Construct: gene CDK14
# CONDITION_SET: concentration: 1 μM, replicates: in singlicate; n = 1
MEASURED_PARAMETER: %Inh (%)
# unit: % | format: bare number

# example entries with known answers
{"columns": ["COMPOUND", "READING_UNIT", "TEST_VALUE"],
 "data": [
  ["CSc1ccc(-c2nc3n(c2-c2ccncc2)CCC3)cc1 [SKF-105561]", "%", 2],
  ["Cc1ccc(NC(=O)Nc2ccc(Cl)c(C(F)(F)F)c2)cc1-c1ccc(C(=O)Nc2ccncc2)cc1 [GSK1398470]", "%", 0],
  ["Cc1ccc(NC(=O)Nc2ccc(Cl)cc2)cc1-c1ccc(C(=O)Nc2ccncc2)cc1 [GSK1398472]", "%", 12],
  ["CCCCc1nn2ncccc2c1-c1ccnc(NC2CC2)n1 [GW684374]", "%", 18],
  ["NS(=O)(=O)c1cccc(N/C=C2\\C(=O)Nc3ccc(S(=O)(=O)Cc4c(Cl)cccc4Cl)cc32)c1 [GSK398099]", "%", 5],
  ["Nc1cccc(-c2ccc3c(N)n[nH]c3c2)n1 [GSK2192730]", "%", 0]
]}

QUERY: For the compound shown here, CN1c2ccc(-c3ccc(C(N)=O)cc3)cc2-c2[nH]ncc2S1(=O)=O , give the reported %Inh.
RESULT: 0

QUERY: Try this compound next: Fc1ccc(-c2nn3cccc(F)c3c2-c2ccncc2)cc1 [GW475620]
RESULT: 20

QUERY: Same question for COc1ccc(Nc2nccc(-c3ccc(NC(=O)c4cc5cc(F)ccc5[nH]4)cc3)n2)cc1 [GSK1229496] please.
RESULT: 13

----------
# Test system: RIPK2
# CONDITION_SET: concentration: 1 μM, replicates: in singlicate; n = 1
Form field: %Inh (one value per entry).
Respond with a number, then the unit of measure.

Worked set:
{"columns": ["COMPOUND", "%Inh"],
 "data": [
  ["O=c1cc(N2CCOCC2)nc2n(Cc3cccc(Cl)c3Cl)c3ccccc3n12 [GSK2299009]", "32%"],
  ["CN1c2ccc(-c3ccc(C(N)=O)cc3)cc2-c2[nH]ncc2S1(=O)=O", "0%"],
  ["Cc1ccccc1-c1cc(-c2c[nH]nc2-c2ccccn2)ccn1 [GW680061]", "2%"],
  ["CS(=O)(=O)CCNCc1nc(-c2ccc3ncnc(Nc4ccc(OCc5ccccc5)c(Cl)c4)c3c2)cs1.Cl [GW582764]", "68%"],
  ["COc1ccc(Nc2nccc(NCCNC(=O)Nc3cc(C)ccc3C)n2)cc1 [GSK1379899]", "0%"]
]}

QUERY: Dear colleague, I am looking for the recorded %Inh of the following compound: COc1ccc(CSc2nnc(-c3ccc4ncsc4c3)o2)cc1C(F)(F)F
RESULT: 0%

----------
# Tested on: SgK110
# CONDITION_SET: concentration: 1 μM, replicates: in singlicate; n = 1
MEASURED_PARAMETER: %Inh (%)
Numbers only here, please. The scale is %.

The cases that follow already have their %Inh on record.
{"columns": ["MOLECULE", "%Inh (%)"],
 "data": [
  ["COc1cc2ncnc(Nc3cccc(Br)c3)c2cc1OC.Cl", 17],
  ["Fc1ccc(-c2nc[nH]c2-c2ccncc2)cc1", 15],
  ["CS(=O)(=O)CCNCc1nc(-c2ccc3ncnc(Nc4ccc(OCc5ccccc5)c(Cl)c4)c3c2)cs1.Cl", 0],
  ["COc1ccc(-c2coc3ccc(-c4nnc(C)o4)cc23)cc1", 52],
  ["COc1ccc2cc(-c3nc(-c4ccccc4C(C)C)[nH]c3-c3ccncc3)ccc2c1", 0]
]}

QUERY: // %Inh lookup, key: CS(=O)(=O)Cc1ccc(Nc2nccc(-c3c(-c4cccc(NC(=O)C5CCCCC5)c4)nn4ncccc34)n2)cc1
RESULT: 0

QUERY: Then what about the molecule FC(F)(F)c1ccccc1-c1cc(-c2c[nH]nc2-c2ccccn2)ccn1 ?
RESULT: 0

QUERY: What do you have for CCCCc1nn2ncccc2c1-c1ccnc(NC2CC2)n1 ?
RESULT: 0
